Origin of values: patent US20250154099A1

- System: Cryptococcus neoformans BNCC225501
- assay_comment: MIC by microdilution method, sensitive Cryptococcus neoformans
- Format: cell-based
- conditions: Cryptococcus neoformans, BNCC225501, 24 h, read-out: MIC Cryptococcus neoformans
readout: MIC (µg/mL)
Give the quantity in µg/mL, number only.

Problem: Suppose we examine the compound Cc1ccc(-c2cc3ccccc3[nH]2)cc1 ; what MIC value has been reported?
Solution: 256

Problem: Same for Cc1ccccc1-c1cc2ccccc2[nH]1
Solution: 2

Problem: Can you handle FC(F)(F)c1ccc(-c2cc3ccccc3[nH]2)cc1 next?
Solution: 256

Problem: Then what about the compound Cc1cccc(-c2cc3ccccc3[nH]2)c1 ?
Solution: 256

Problem: Then O=[N+]([O-])c1cccc(-c2cc3ccccc3[nH]2)c1 ?
Solution: 8

Problem: Consider next the compound c1ccc2[nH]c(-c3ccc4c(c3)OCO4)cc2c1 in the same way.
Solution: 256

Problem: Item: COc1cccc(-c2cc3ccccc3[nH]2)c1
Solution: 4

Problem: Entry to check: c1ccc(-c2cc3ccccc3[nH]2)cc1
Solution: 256

====

- Tested on: Aspergillus fumigatus Fresenius BNCC338385
- assay_comment: MIC by microdilution method, sensitive Aspergillus fumigatus Fresenius
- Format: cell-based
- conditions: Aspergillus fumigatus; sensitive strain; 35° C., 24 h; minimum concentration with inhibition rate greater than 80%; read-out: MIC Aspergillus fumigatus Fresenius
readout: MIC (µg/mL)
Could you give me the number in µg/mL? Just the number is fine.

Clc1ccc2cc(-c3ccccc3)[nH]c2c1; 8

Problem: What value of MIC on Aspergillus fumigatus Fresenius BNCC338385 does COC(=O)c1ccc2cc(-c3ccccc3)[nH]c2c1 have?
Solution: 256

Problem: And for Cc1ccc2[nH]c(-c3ccccc3)cc2c1 ?
Solution: 256

Problem: Try this compound too: OC(Cn1cncn1)(Cn1cncn1)c1ccc(F)cc1F [Fluconazole, fluconazole, reference compound]
Solution: 2

Problem: One more compound: Fc1ccc2cc(-c3ccccc3)[nH]c2c1
Solution: 16

====

Listed next: entries and their corresponding pIC50.
- Tested on: RAW 264.7 murine macrophage cells
- assay_comment: MTT cytotoxicity test on RAW 264.7
- Assay type: cell-based, mouse
- conditions: Mus musculus, RAW264.7, 24 h, read-out: IC50 RAW 264.7 cell viability
Here pIC50 is given on a logarithmic scale as minus log10 of the concentration in mol/L.

Problem: Request the reported pIC50 associated with Cc1ccccc1-c1cc2ccccc2[nH]1
Solution: 4.30

Problem: What do you get for Fc1ccc2cc(-c3ccccc3)[nH]c2c1 ?
Solution: 4.90

Problem: Also need Clc1ccc2cc(-c3ccccc3)[nH]c2c1 , thanks.
Solution: 4.00

====

- Tested on: Candida albicans BNCC186382
- assay_comment: MIC by microdilution method, sensitive Candida albicans
- Type: cell-based
- conditions: Candida albicans, BNCC186382; sensitive strain; 35° C., 24 h; minimum concentration with inhibition rate greater than 80%; read-out: MIC Candida albicans
# maps each entry to its MIC

Fc1ccc2cc(-c3ccccc3)[nH]c2c1 [Compound 5]; 16 µg/mL

Problem: Consider the compound OC(Cn1cncn1)(Cn1cncn1)c1ccc(F)cc1F [Fluconazole, fluconazole, reference compound] and give its measured MIC.
Solution: 2 µg/mL

Problem: Do the same for COc1ccc2cc(-c3ccccc3)[nH]c2c1 [Compound 3] please
Solution: 256 µg/mL

Problem: Then what about the compound COC(=O)c1ccc2cc(-c3ccccc3)[nH]c2c1 [Compound 20] ?
Solution: 32 µg/mL

Problem: Input Fc1ccc2[nH]c(-c3ccccc3)cc2c1 [Compound 22]
Solution: 256 µg/mL

Problem: Quick one: COc1ccc2[nH]c(-c3ccccc3)cc2c1 [Compound 18]
Solution: 256 µg/mL
